# assayMethodText: Metabolic stability in human liver microsomes
# Assay type: in vitro ADME
# conditionNotes: human liver microsomes 2.0 mg/mL, 0.25 μM test compound, 2 mM NADPH, pH 7.4, 37° C., 30 min
observedProperty: % Parent Remaining (30 min) Ave ± SD (%)

>>> resultvalue("[2H]C([2H])([2H])C([2H])([2H])n1ncnc1COc1nn2c(-c3ccccc3F)nnc2cc1C(C([2H])([2H])[2H])(C([2H])([2H])[2H])C([2H])([2H])[2H]")
90
>>> resultvalue("[2H]C([2H])(Oc1nn2c(-c3ccccc3F)nnc2cc1C(C([2H])([2H])[2H])(C([2H])([2H])[2H])C([2H])([2H])[2H])c1ncnn1C([2H])([2H])[2H]")
91
>>> resultvalue("CCn1ncnc1COc1nn2c(-c3ccccc3F)nnc2cc1C(C)(C)C")
62
>>> resultvalue("[2H]C([2H])(Oc1nn2c(-c3ccccc3F)nnc2cc1C(O)(C([2H])([2H])[2H])C([2H])([2H])[2H])c1ncnn1C([2H])([2H])C([2H])([2H])[2H]")
92
>>> resultvalue("[2H]C([2H])([2H])C(O)(c1cc2nnc(-c3ccccc3F)n2nc1OCc1ncnn1CC)C([2H])([2H])[2H]")
82
>>> resultvalue("[2H]C([2H])(Oc1nn2c(-c3ccccc3F)nnc2cc1C(C([2H])([2H])[2H])(C([2H])([2H])[2H])C([2H])([2H])[2H])c1ncnn1C([2H])([2H])C([2H])([2H])[2H]")
89
>>> resultvalue("[2H]C([2H])([2H])n1ncnc1COc1nn2c(-c3ccccc3F)nnc2cc1C(C([2H])([2H])[2H])(C([2H])([2H])[2H])C([2H])([2H])[2H]")
100
>>> resultvalue("[2H]C([2H])([2H])C(c1cc2nnc(-c3ccccc3F)n2nc1OCc1ncnn1CC)(C([2H])([2H])[2H])C([2H])([2H])[2H]")
80
